Target: Thioredoxin reductase 1, cytoplasmic (Rattus norvegicus, UniProt O89049)
Sequence (O89049 whole entry): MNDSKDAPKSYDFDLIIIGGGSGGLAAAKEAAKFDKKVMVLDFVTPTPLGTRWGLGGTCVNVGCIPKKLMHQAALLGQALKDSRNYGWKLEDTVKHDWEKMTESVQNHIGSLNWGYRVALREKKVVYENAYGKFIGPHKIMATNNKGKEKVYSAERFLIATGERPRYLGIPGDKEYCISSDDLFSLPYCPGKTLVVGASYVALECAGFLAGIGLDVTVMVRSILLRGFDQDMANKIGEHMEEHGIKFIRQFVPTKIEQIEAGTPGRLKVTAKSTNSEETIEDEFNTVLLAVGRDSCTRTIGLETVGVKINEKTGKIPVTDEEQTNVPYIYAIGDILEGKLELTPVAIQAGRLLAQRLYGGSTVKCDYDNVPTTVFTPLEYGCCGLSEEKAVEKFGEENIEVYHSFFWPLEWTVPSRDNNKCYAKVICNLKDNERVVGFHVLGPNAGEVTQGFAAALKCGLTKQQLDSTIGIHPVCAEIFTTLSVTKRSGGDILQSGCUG
Assay: Inhibition of rat TrxR1 using DTNB as substrate preincubated for 15 mins followed by substrate addition and measured for 20 mins by colorimetric method
Measure: EC50 (µM)

Known results for compounds:
# Compound, Assayed System, Measure, Value Measured
rows = [
    ("C=C(C(=O)NCCn1[se]c2ccccc2c1=O)c1ccc(CC(C)C)cc1", "Thioredoxin reductase 1, cytoplasmic (Rattus norvegicus, UniProt O89049)", "EC50", 23.5),
    ("CC(C(=O)NCc1ccc(-n2[se]c3ccccc3c2=O)cc1)c1ccc(-c2ccccc2)c(F)c1 (centres undefined)", "Thioredoxin reductase 1, cytoplasmic (Rattus norvegicus, UniProt O89049)", "EC50", 11.2),
    ("CCC1(CC)OCCc2c1[nH]c1c(CC(=O)NCc3ccc(-n4[se]c5ccccc5c4=O)cc3)cccc21", "Thioredoxin reductase 1, cytoplasmic (Rattus norvegicus, UniProt O89049)", "EC50", 17.1),
    ("Cc1cccc(Nc2ccccc2C(=O)NCc2ccc(-n3[se]c4ccccc4c3=O)cc2)c1C", "Thioredoxin reductase 1, cytoplasmic (Rattus norvegicus, UniProt O89049)", "EC50", 14.3),
    ("COc1ccc2cc(C(C)C(=O)NCc3ccc(-n4[se]c5ccccc5c4=O)cc3)ccc2c1 (centres undefined)", "Thioredoxin reductase 1, cytoplasmic (Rattus norvegicus, UniProt O89049)", "EC50", 14.6),
    ("CC1=C(CC(=O)NCCn2[se]c3ccccc3c2=O)c2cc(F)ccc2/C1=C\\c1ccc([S+](C)[O-])cc1 (centres undefined)", "Thioredoxin reductase 1, cytoplasmic (Rattus norvegicus, UniProt O89049)", "EC50", 27),
]

I: COc1ccc2c(c1)c(CC(=O)NCCn1[se]c3ccccc3c1=O)c(C)n2C(=O)c1ccc(Cl)cc1
II: COc1ccc2c(c1)c(CC(=O)NCc1ccc(-n3[se]c4ccccc4c3=O)cc1)c(C)n2C(=O)c1ccc(Cl)cc1
III: CC(=O)Oc1ccccc1C(=O)NCc1ccc(-n2[se]c3ccccc3c2=O)cc1
## Input Hey, quick one: sort these by EC50, low to high? When ranking, write the labels in the order the request describes.
## Output III, II, I

P: O=C(NCc1ccc(-n2[se]c3ccccc3c2=O)cc1)c1ccccc1Nc1cccc(C(F)(F)F)c1
Q: CC(C(=O)NCc1ccc(-n2[se]c3ccccc3c2=O)cc1)c1cccc(C(=O)c2ccccc2)c1 (centres undefined)
## Input Select one. Lower EC50: P or Q Your answer should be the label of the entry you select.
## Output P
(P: 11.5 µM, Q: 19.6 µM)

1: COc1ccc2cc(C(C)C(=O)NCCn3[se]c4ccccc4c3=O)ccc2c1 (centres undefined)
2: CC(C)Cc1ccc(C(C)C(=O)NCc2ccc(-n3[se]c4ccccc4c3=O)cc2)cc1 (centres undefined)
3: CC1=C(CC(=O)NCc2ccc(-n3[se]c4ccccc4c3=O)cc2)c2cc(F)ccc2/C1=C\c1ccc([S+](C)[O-])cc1 (centres undefined)
## Input Hey, quick one: sort these by EC50, low to high? When ranking, write the labels in the order the request describes.
## Output 3, 2, 1

====

Reported IC50 values for a set of molecules
Tested on: SW480
Test: Cytotoxicity against human SW480 cells measured after 24 to 72 hrs by MTT assay
Format: functional, cell-based
State just the number; it will be interpreted in µM.

# Molecule, IC50, µM
data = [
    ("Cc1cccc(Nc2ccccc2C(=O)NCc2ccc(-n3[se]c4ccccc4c3=O)cc2)c1C", 4.5),
]

Value of measured IC50 for the entry CCC1(CC)OCCc2c1[nH]c1c(CC(=O)NCc3ccc(-n4[se]c5ccccc5c4=O)cc3)cccc21 : 12.3

Value of measured IC50 for the entry CC(=O)Oc1ccccc1C(=O)NCc1ccc(-n2[se]c3ccccc3c2=O)cc1 : 2.8

Value of measured IC50 for the entry CC(C(=O)NCc1ccc(-n2[se]c3ccccc3c2=O)cc1)c1cccc(C(=O)c2ccccc2)c1 (stereo not given) : 12.5

Value of measured IC50 for the entry O=C(NCCn1[se]c2ccccc2c1=O)c1ccccc1Nc1cccc(C(F)(F)F)c1 : 9.4

====

System: SW480
Test: Cytotoxicity against human SW480 cells measured after 24 to 72 hrs by MTT assay
Type: functional, cell-based
Measure: pIC50
Please report pIC50 as the negative decimal logarithm of the molar concentration, giving only the number.

# Compound, pIC50
measured = [
    ("COc1ccc2cc(C(C)C(=O)NCCn3[se]c4ccccc4c3=O)ccc2c1 (centres undefined)", 4.80),
    ("CC1=C(CC(=O)NCc2ccc(-n3[se]c4ccccc4c3=O)cc2)c2cc(F)ccc2/C1=C\\c1ccc([S+](C)[O-])cc1 (centres undefined)", 5.01),
    ("COc1ccc2c(c1)c(CC(=O)NCCn1[se]c3ccccc3c1=O)c(C)n2C(=O)c1ccc(Cl)cc1", 4.84),
    ("Cc1cccc(Nc2ccccc2C(=O)NCCn2[se]c3ccccc3c2=O)c1C", 5.14),
]

Value of measured pIC50 for the entry O=C(NCc1ccc(-n2[se]c3ccccc3c2=O)cc1)c1ccccc1Nc1cccc(C(F)(F)F)c1 : 4.86

Value of measured pIC50 for the entry CC(C(=O)NCc1ccc(-n2[se]c3ccccc3c2=O)cc1)c1ccc(-c2ccccc2)c(F)c1 (centres undefined) : 5.08

Value of measured pIC50 for the entry CC1=C(CC(=O)NCCn2[se]c3ccccc3c2=O)c2cc(F)ccc2/C1=C\c1ccc([S+](C)[O-])cc1 (centres undefined) : 4.98

====

Test system: HeLa
Experiment: Cytotoxicity against human HeLa cells measured after 24 to 72 hrs by MTT assay
Assay type: functional, cell-based
Measure: IC50 (µM)
State just the number; it will be interpreted in µM.

# Compound, Assayed System, Measure, Value Measured
data = [
    ("C=C(C(=O)NCCn1[se]c2ccccc2c1=O)c1ccc(CC(C)C)cc1", "HeLa", "IC50", 10.6),
    ("COc1ccc2cc(C(C)C(=O)NCc3ccc(-n4[se]c5ccccc5c4=O)cc3)ccc2c1 (centres undefined)", "HeLa", "IC50", 9.7),
    ("CC(C(=O)NCc1ccc(-n2[se]c3ccccc3c2=O)cc1)c1ccc(-c2ccccc2)c(F)c1 (centres undefined)", "HeLa", "IC50", 9.5),
    ("CC(C(=O)NCCn1[se]c2ccccc2c1=O)c1ccc(-c2ccccc2)c(F)c1 (centres undefined)", "HeLa", "IC50", 10.4),
    ("COc1cccc2c1C(=O)c1c(O)c3c(c(O)c1C2=O)C[C@@](O)(C(=O)CO)C[C@@H]3O[C@H]1C[C@H](N)[C@H](O)[C@H](C)O1 [DOXORUBICIN]", "HeLa", "IC50", 11.5),
    ("CC(C)Cc1ccc(C(C)C(=O)NCc2ccc(-n3[se]c4ccccc4c3=O)cc2)cc1 (centres undefined)", "HeLa", "IC50", 9.3),
    ("O=C(NCCn1[se]c2ccccc2c1=O)c1ccccc1Nc1cccc(C(F)(F)F)c1", "HeLa", "IC50", 15.2),
    ("CC1=C(CC(=O)NCCn2[se]c3ccccc3c2=O)c2cc(F)ccc2/C1=C\\c1ccc([S+](C)[O-])cc1 (centres undefined)", "HeLa", "IC50", 11.3),
]

Value of measured IC50 for the entry CC(=O)Oc1ccccc1C(=O)NCc1ccc(-n2[se]c3ccccc3c2=O)cc1 : 1.7

Value of measured IC50 for the entry CCC1(CC)OCCc2c1[nH]c1c(CC(=O)NCc3ccc(-n4[se]c5ccccc5c4=O)cc3)cccc21 : 12.6

Value of measured IC50 for the entry CC(C(=O)NCCn1[se]c2ccccc2c1=O)c1cccc(C(=O)c2ccccc2)c1 (centres undefined) : 11.3

Value of measured IC50 for the entry Cc1cccc(Nc2ccccc2C(=O)NCCn2[se]c3ccccc3c2=O)c1C : 8.8

Value of measured IC50 for the entry CC(C(=O)NCc1ccc(-n2[se]c3ccccc3c2=O)cc1)c1cccc(C(=O)c2ccccc2)c1 (centres undefined) : 9.2

Value of measured IC50 for the entry COc1ccc2c(c1)c(CC(=O)NCCn1[se]c3ccccc3c1=O)c(C)n2C(=O)c1ccc(Cl)cc1 : 13.6

Value of measured IC50 for the entry CC1=C(CC(=O)NCc2ccc(-n3[se]c4ccccc4c3=O)cc2)c2cc(F)ccc2/C1=C\c1ccc([S+](C)[O-])cc1 (centres undefined) : 8.4

====

Reported Activity values for a set of molecules
System: DNA
Assay: Induction of bleomycin-dependent DNA (unknown origin) damage assessed as absorbance at 0.1 mg/ml measured after 1 hr
Type: nucleic-acid assay
Number, no unit, nothing else.

Known results for molecules:
# Molecule, Measure, Value Measured
records = [
    ("CC(C(=O)NCCn1[se]c2ccccc2c1=O)c1ccc(-c2ccccc2)c(F)c1 (stereo unspecified)", "Activity", 85.7),
    ("CC1=C(CC(=O)NCc2ccc(-n3[se]c4ccccc4c3=O)cc2)c2cc(F)ccc2/C1=C\\c1ccc([S+](C)[O-])cc1 (stereo unspecified)", "Activity", 72.4),
    ("CCC1(CC)OCCc2c1[nH]c1c(CC(=O)NCc3ccc(-n4[se]c5ccccc5c4=O)cc3)cccc21", "Activity", 97.4),
    ("CC(C(=O)NCc1ccc(-n2[se]c3ccccc3c2=O)cc1)c1cccc(C(=O)c2ccccc2)c1 (stereo unspecified)", "Activity", 85.3),
]

Value of measured Activity for the entry CC(=O)Oc1ccccc1C(=O)NCCn1[se]c2ccccc2c1=O : 91.4

Value of measured Activity for the entry CC1=C(CC(=O)NCCn2[se]c3ccccc3c2=O)c2cc(F)ccc2/C1=C\c1ccc([S+](C)[O-])cc1 (stereo unspecified) : 68.4
